target: ScLsb4; assay: SPOT peptide array binding signal intensity (averaged, normalized) (arbitrary units (background-subtracted, floor 0; scale differs between SH3 domains)); higher = stronger binding of the SH3 domain to the peptide
measurement.name: SPOT peptide array binding signal intensity
Keep it simple and answer with nothing but the number.

Lab note: measured SPOT peptide array binding signal intensity of DAPASKPSVPPRNYF was 293

Reported SPOT peptide array binding signal intensity ( GAGERPRLVPRPINV ) = 20

SPOT peptide array binding signal intensity for LKRITSPPLPPRADS is 5640

The reported numbers originate from the supplement of paper PMC4466140.
